- MEASUREMENT TARGET: human adenosine A2b receptor (Homo sapiens, UniProt P29275)
- Sequence (P29275 whole entry): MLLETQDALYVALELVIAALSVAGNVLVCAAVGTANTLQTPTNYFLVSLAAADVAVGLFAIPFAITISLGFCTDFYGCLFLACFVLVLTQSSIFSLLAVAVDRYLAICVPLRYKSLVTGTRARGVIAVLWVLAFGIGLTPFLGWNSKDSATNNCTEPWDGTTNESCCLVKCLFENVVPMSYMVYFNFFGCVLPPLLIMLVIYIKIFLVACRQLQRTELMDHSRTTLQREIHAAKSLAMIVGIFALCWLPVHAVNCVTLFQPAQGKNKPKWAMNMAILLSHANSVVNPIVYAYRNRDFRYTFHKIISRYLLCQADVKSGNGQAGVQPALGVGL
- TEST DETAILS: Cellular reporter gene (CRE-luciferase) A2b receptor antagonist assay in recombinant CHO-K1 cells stimulated with NECA
- REPORTED CONDITIONS: recombinant CHO-K1 cell line, co-incubation with EC50 concentration of NECA, 3 hours, in some cases means, rounded to two significant digits
REPORTED ENDPOINT: IC50 (nM)
Kindly answer with a numeric value in nM, unit omitted.

Please look at CCn1c(=O)c2c(C)c(C(=O)N3CCNC(=O)C3)sc2n(CCC=C(F)F)c1=O and tell me its recorded IC50 on human adenosine A2b receptor (Homo sapiens, UniProt P29275).
200

Fill: IC50 (human adenosine A2b receptor (Homo sapiens, UniProt P29275)) for this compound COCCn1c(=O)n(CCc2ccccc2)c(=O)c2c(C)c(C(=O)N3CCC(O)CC3)sc21
290

Recall the reported IC50 of Cc1ccccc1CCn1c(=O)c2c(C)c(C(=O)N3CCC(O)CC3)sc2n(CCC(F)(F)F)c1=O when tested on human adenosine A2b receptor (Homo sapiens, UniProt P29275).
20

Would you please give the reported IC50 of CCn1c(=O)c2c(C)c(C(=O)N3CCC(O)C(C)C3)sc2n(CCC(F)(F)F)c1=O (stereo not shown) with human adenosine A2b receptor (Homo sapiens, UniProt P29275)?
53

Under human adenosine A2b receptor (Homo sapiens, UniProt P29275): report IC50 of Cc1c(C(=O)N2CCC(O)CC2)sc2c1c(=O)n(CC(F)c1ccccc1)c(=O)n2CCC(F)(F)F (single isomer, unassigned) [Example 102] .
3.6

Given CC1(O)CCN(C(=O)c2cc3c(=O)n(CCc4ccccc4)c(=O)n(CCC(F)(F)F)c3s2)CC1 , report its IC50 on human adenosine A2b receptor (Homo sapiens, UniProt P29275).
260

Provide measured IC50 on human adenosine A2b receptor (Homo sapiens, UniProt P29275) for Cc1c(C(=O)N2CCC(O)CC2)sc2c1c(=O)n(CCc1cccc(Cl)c1)c(=O)n2CCC(F)(F)F please.
310

Please tell me the measured IC50 for CCn1c(=O)c2c(C)c(C(=O)N3CCC(C)(O)CC3)sc2n(CCC(F)(F)F)c1=O ; system: human adenosine A2b receptor (Homo sapiens, UniProt P29275).
25

// fetch IC50; item: CCn1c(=O)c2c(CF)c(C(=O)N3CCC(C)(O)CC3)sc2n(CCC(F)(F)F)c1=O ; system: human adenosine A2b receptor (Homo sapiens, UniProt P29275)
170

Would you please give the reported IC50 of CC1(O)CCN(C(=O)c2sc3c(c2C(F)F)c(=O)n(CCc2ccccc2)c(=O)n3CCC(F)(F)F)CC1 with human adenosine A2b receptor (Homo sapiens, UniProt P29275)?
9.5

Give IC50 only, for COC(Cn1c(=O)c2c(C)c(C(=O)N3CCC(O)CC3)sc2n(CCC(F)(F)F)c1=O)C(F)(F)F (single isomer, unassigned) [Example 108] , using human adenosine A2b receptor (Homo sapiens, UniProt P29275) data.
580

Report value: IC50, system: human adenosine A2b receptor (Homo sapiens, UniProt P29275), compound: CCn1c(=O)c2c(C(F)F)c(C(=O)N3CCC(C)(O)CC3)sc2n(CCOC(F)(F)F)c1=O
9.5

Fill in: IC50 on human adenosine A2b receptor (Homo sapiens, UniProt P29275), entry COC(C)Cn1c(=O)c2c(C)c(C(=O)N3CCC(O)CC3)sc2n(CCC(F)(F)F)c1=O (racemic)
96

Please indicate recorded IC50 of Cc1c(C(=O)N2CCNC(=O)C2)sc2c1c(=O)n(CCc1ccccc1)c(=O)n2CCC=C(F)F measured with human adenosine A2b receptor (Homo sapiens, UniProt P29275).
41

// fetch IC50; item: CCn1c(=O)c2c(C(F)(F)F)c(C(=O)N3CCC(C)(O)CC3)sc2n(CCC(F)(F)F)c1=O ; system: human adenosine A2b receptor (Homo sapiens, UniProt P29275)
23

Provide IC50, recorded with human adenosine A2b receptor (Homo sapiens, UniProt P29275), of COCCn1c(=O)n(CC(F)(F)c2ccccc2)c(=O)c2c(C)c(C(=O)N3CCC(O)CC3)sc21
210

Please report the measured IC50 for COC(Cn1c(=O)c2c(C)c(C(=O)N3CCC(O)CC3)sc2n(CCC(F)(F)F)c1=O)C(F)(F)F (single isomer, unassigned) [Example 107] tested on human adenosine A2b receptor (Homo sapiens, UniProt P29275).
45

Provide human adenosine A2b receptor (Homo sapiens, UniProt P29275) IC50 reading for COCCn1c(=O)n(CCc2ccccc2)c(=O)c2c(C)c(C(=O)N3CCNC(=O)C3)sc21 .
150

Provide human adenosine A2b receptor (Homo sapiens, UniProt P29275) IC50 reading for CCn1c(=O)c2c(C)c(C(=O)N3CCC(C)(O)CC3)sc2n(CCOC(F)(F)F)c1=O .
4

Jot down IC50 (human adenosine A2b receptor (Homo sapiens, UniProt P29275)) of O=C(c1sc2c(c1C(F)F)c(=O)n(CCc1ccccc1)c(=O)n2CCC(F)(F)F)N1CCC(O)CC1 .
19

Print human adenosine A2b receptor (Homo sapiens, UniProt P29275) IC50 for CC(C)Cn1c(=O)c2c(C(F)F)c(C(=O)N3CCC(C)(O)CC3)sc2n(CCC(F)(F)F)c1=O .
39

Tell me IC50 of CCn1c(=O)c2c(C)c(C(=O)N3CCNC(=O)C3C)sc2n(CCC(F)(F)F)c1=O (racemic) when tested on human adenosine A2b receptor (Homo sapiens, UniProt P29275).
220

With human adenosine A2b receptor (Homo sapiens, UniProt P29275) as the test system, provide measured IC50 for this compound: COC(Cn1c(=O)c2c(C)c(C(=O)N3CCC(O)CC3)sc2n(CCC(F)(F)F)c1=O)c1ccccc1 (racemic) [Example 46]
7.9

System human adenosine A2b receptor (Homo sapiens, UniProt P29275). Read-out IC50. Item Cc1c(C(=O)N2CCNC(=O)C2)sc2c1c(=O)n(CCc1ccccc1)c(=O)n2CCC(F)(F)F . Report value.
17

Write down the reported IC50 (system: human adenosine A2b receptor (Homo sapiens, UniProt P29275)) of O=C(c1sc2c(c1C(F)F)c(=O)n(CCc1ccccc1)c(=O)n2CCC(F)(F)F)N1CCC(O)(CO)CC1
12

---

- MEASUREMENT TARGET: UniProt:P29275
- TEST DETAILS: Cellular reporter gene (CRE-luciferase) A2b receptor antagonist assay in recombinant CHO-K1 cells stimulated with NECA
- REPORTED CONDITIONS: recombinant CHO-K1 cell line, co-incubation with EC50 concentration of NECA, 3 hours, in some cases means, rounded to two significant digits
REPORTED ENDPOINT: IC50 (nM)
Please give a number only; it is taken to be in nM.

Look up and report measured IC50 (UniProt:P29275) for the following compound: Cc1c(C(=O)N2CCC(O)CC2)sc2c1c(=O)n(CC(C)c1ccccc1)c(=O)n2CCC(F)(F)F (single isomer, unassigned; enantiomer 2) [Example 45]
150

Report measured IC50 on UniProt:P29275; entry: CCn1c(=O)c2c(C(F)F)c(C(=O)N3CCC(C)(O)CC3)sc2n(CCC(F)(F)F)c1=O
37

Find the measured IC50 of CCn1c(=O)c2c(C)c(C(=O)N3CC4CCCC(C3)C4O)sc2n(CCC(F)(F)F)c1=O (centres unmarked) with UniProt:P29275 as test system.
17

Report IC50 under test system UniProt:P29275 for O=C(c1cc2c(=O)n(CCc3ccccc3)c(=O)n(CCC(F)(F)F)c2s1)N1CCC(O)(CO)CC1 .
370

Give UniProt:P29275 IC50 for the following compound: CCC1C(=O)NCCN1C(=O)c1sc2c(c1C)c(=O)n(CC)c(=O)n2CCC(F)(F)F (racemic)
230

Print UniProt:P29275 IC50 for Cc1c(C(=O)N2CCC(O)CC2)sc2c1c(=O)n(CCc1ccc(Cl)cc1)c(=O)n2CCC(F)(F)F .
100

Report value only: IC50, UniProt:P29275, CCn1c(=O)c2c(C(F)(F)F)c(C(=O)N3CCC(O)CC3)sc2n(CCC(F)(F)F)c1=O
49

Enter recorded IC50 with UniProt:P29275 for CCn1c(=O)c2c(C)c(C(=O)N3CCC(O)(CO)CC3)sc2n(CCOC(F)(F)F)c1=O here.
33
